Tested on: SW260
Experiment description: In vitro cytotoxicity, SRB method
Assay type: cell-based
Measurement conditions: SW260 colon cancer, 72 hours
Protocol: SRB method was followed (Wieland, V., et al. Sulforhodamine B Assay and Chemosensitivity. Chemosensitivity, volume 1, In Vitro Assays. Methods in Molecular Medicine. Edited by Rosalyn D. Blumenthal. Humana Press, Totowa, N.J., 2005). Cells were seeded in microplates of 96 wells. […] Mean viability values for each concentration were calculated from the values obtained for each well in which that concentration was assayed.
pIC50: −log10 of the molar value.

{"Molecule": "C(CCCNCc1cccs1)=C(c1ccccc1)c1ccccc1.Cl [Compound 6, hydrochloride]", "Assayed target": "SW260", "pIC50": 4.89}
{"Molecule": "C(CCCCNc1ncnc2[nH]ncc12)=C(c1ccccc1)c1ccccc1 [Compound 40]", "Assayed target": "SW260", "pIC50": 4.30}
{"Molecule": "CC(C)n1ncc2c(NCCCCC=C(c3ccccc3)c3ccccc3)ncnc21 [Compound 44]", "Assayed target": "SW260", "pIC50": 4.30}

====

# IC50 at 72 h per entry
Experiment description: Cytotoxicity for human non-tumoral cells, XTT
Type: cell-based
Measurement conditions: HUVEC cells (primary, from human cords)
Readout name: IC50 at 72 h (µM)

{"Compound": "CC(=O)O[C@H]1C(=O)[C@@]2(C)[C@H]([C@H](OC(=O)c3ccccc3)[C@]3(O)C[C@H](OC(=O)[C@H](O)[C@@H](NC(=O)c4ccccc4)c4ccccc4)C(C)=C1C3(C)C)[C@]1(OC(C)=O)CO[C@@H]1C[C@@H]2O [Taxol, reference compound]", "Readout name": "IC50 at 72 h", "Observed measurement": 0.00047}
{"Compound": "C(CCCCNc1ncnc2[nH]ncc12)=C(c1ccccc1)c1ccccc1 [Compound 40]", "Readout name": "IC50 at 72 h", "Observed measurement": 36}
{"Compound": "Fc1ccc(CNCCCC=C(c2ccccc2)c2ccccc2)cc1 [Compound 3]", "Readout name": "IC50 at 72 h", "Observed measurement": 16}
